In this section, each of the molecules is paired with its reported viability at 28.5 h, 10 µM.
assay: in vitro; conditions: human, hela cells, % viability

MOLECULE: CC1=C[C@@H](CNS(C)(=O)=O)[C@H](C(C)C)C[C@H]1CC(=O)N1CCOCC1 [CBK289050]
viability at 28.5 h, 10 µM, %: 89.3

MOLECULE: Cc1ccc(/C=C(\NC(=O)c2ccccc2)C(=O)N2CCCC2C(=O)O)cc1 (centres unmarked) [CBK265649]
viability at 28.5 h, 10 µM, %: 87.6

MOLECULE: O=C(Nc1nc2c(F)cc(F)cc2s1)c1ccc(F)cc1 [CBK287617]
viability at 28.5 h, 10 µM, %: 101

MOLECULE: O=C(CC1Nc2cccc3cccc(c23)NC1=O)Nc1ccccc1 (centres unmarked) [CBK268035]
viability at 28.5 h, 10 µM, %: 87.2

MOLECULE: COC(=O)[C@@H](C)NC(=O)[C@@H]1CN(C(=O)c2cccc(F)c2)CCN1C(C)=O [CBK289620]
viability at 28.5 h, 10 µM, %: 91.3

MOLECULE: O=C(NC1CCc2ccccc21)c1cnc(-c2ccc(Cl)cc2)c(-c2ccc(O)cc2)c1 (centres unmarked) [CBK036629]
viability at 28.5 h, 10 µM, %: 91

MOLECULE: CC(=O)NC1(CC(=O)N2CC[C@H]3NC(=O)COc4ccccc4C/C=C/C[C@H]3C2)CCCCC1 [CBK292117]
viability at 28.5 h, 10 µM, %: 91.3

MOLECULE: O=C(C1CCC1)N1CCC(c2nc(Cc3cccs3)no2)C1 (centres unmarked) [CBK283028]
viability at 28.5 h, 10 µM, %: 90.9

MOLECULE: COc1ccc(N2C(=O)CC(N3CCN(C4CC(=O)N(c5ccc(OC)cc5)C4=O)CC3)C2=O)cc1 (centres unmarked) [CBK260907]
viability at 28.5 h, 10 µM, %: 88.2

MOLECULE: COCCn1ccnc1C1CCCN(C(=O)COc2ccccc2Cl)C1 (centres unmarked) [CBK307211]
viability at 28.5 h, 10 µM, %: 90.2

MOLECULE: C[C@@H](c1ccccc1)N1C(=O)[C@@H]2CN(C(=O)COCC(=O)O)CCN2C1=O [CBK289636]
viability at 28.5 h, 10 µM, %: 94.3

MOLECULE: CC(NC(=O)CCc1cc2n(n1)CCNC2)c1cn2ccsc2n1 (centres unmarked) [CBK306551]
viability at 28.5 h, 10 µM, %: 91.2

MOLECULE: O=C(NC(C(=O)N/N=C/c1cccs1)c1n[nH]c(=O)c2ccccc12)c1ccccc1 (centres unmarked) [CBK261250]
viability at 28.5 h, 10 µM, %: 98

MOLECULE: CCn1cc(C(=O)O)c(=O)c2cnc(N3CCN(C(=S)Nc4ccc5c(c4)OCCO5)CC3)nc21 [CBK267895]
viability at 28.5 h, 10 µM, %: 95.8

MOLECULE: COc1ccc(N(C(C)C(=O)Nc2ccc(Cl)c(Cl)c2)S(C)(=O)=O)cc1 (centres unmarked) [CBK266872]
viability at 28.5 h, 10 µM, %: 114

MOLECULE: Clc1ccc(CN2CCC(Oc3cncc(OCc4cccnc4)n3)C2)cc1Cl (centres unmarked) [CBK084448]
viability at 28.5 h, 10 µM, %: 84

MOLECULE: CC(=O)N1c2ccccc2C(C)(c2ccc(Br)cc2)CC1(C)C (centres unmarked) [CBK026461]
viability at 28.5 h, 10 µM, %: 95.8

MOLECULE: O=C1NCCN/C1=C\C(=O)c1ccc(Br)cc1 [CBK261427]
viability at 28.5 h, 10 µM, %: 90.2

MOLECULE: CNC(=O)CSc1nnc(COc2cccc3ccccc23)n1-c1ccccc1 [CBK266043]
viability at 28.5 h, 10 µM, %: 102

MOLECULE: COc1ccc(C)cc1S(=O)(=O)n1ccc2c(CN3CCC(N)CC3)cccc21 [CBK113312T]
viability at 28.5 h, 10 µM, %: 78.6

MOLECULE: CN(C)S(=O)(=O)Nc1ccc2c(ccn2Cc2ccccc2)c1 [CBK155765]
viability at 28.5 h, 10 µM, %: 86.6

MOLECULE: COc1cccc(CSC2=C(C#N)C(c3cccs3)C(C(=O)Nc3ccccc3)=C(C)N2)c1 (centres unmarked) [CBK267458]
viability at 28.5 h, 10 µM, %: 83.2

MOLECULE: Cn1ncc2c1CCCC2NC(=O)N(CCO)Cc1ccccc1 (centres unmarked) [CBK306293]
viability at 28.5 h, 10 µM, %: 86.1

MOLECULE: CCCNC(=O)Cn1nc(C)n2c(cc3ccsc32)c1=O [CBK284061]
viability at 28.5 h, 10 µM, %: 78.2

MOLECULE: CC1CCN(S(=O)(=O)c2ccc(C(=O)N[C@@H](C)C(=O)O)cc2)CC1 [CBK297106]
viability at 28.5 h, 10 µM, %: 96.6

MOLECULE: O=C(c1ccc(F)cc1)C1CCN(Cc2ccc3ccccc3c2)CC1 [CBK149122]
viability at 28.5 h, 10 µM, %: 79.9

---

experiment: in vitro; conditions: human, hela cells, % viability

COMPOUND: CS(=O)(=O)c1ccc(-c2ccc(C(=O)NCc3ccccc3)cn2)cc1
viability at 28.5 h, 10 µM: 89.2%
--
COMPOUND: Cc1ccc(OCCOc2cccc(/C=N/n3cnnc3)c2)cc1
viability at 28.5 h, 10 µM: 111%
--
COMPOUND: Cc1onc(-c2ccccc2)c1CNC(=O)c1ccco1
viability at 28.5 h, 10 µM: 90.5%
--
COMPOUND: Cc1nnc(CN2CCOc3ccc(Br)cc3C2)o1
viability at 28.5 h, 10 µM: 99%
--
COMPOUND: Cc1cc(CSc2ccccc2)ccc1NC(=O)/C=C/c1cccc([N+](=O)[O-])c1
viability at 28.5 h, 10 µM: 111%
--
COMPOUND: COCCOc1ccc(-c2noc([C@@H]3CCCN3)n2)cn1
viability at 28.5 h, 10 µM: 97.4%
--
COMPOUND: CCN1C(=O)c2ccccc2C(=O)[C@@]2(C)CN(C(C)C)C[C@@H]12
viability at 28.5 h, 10 µM: 109%
--
COMPOUND: O=C(NCc1ccccc1)c1ccc2nc[nH]c2c1
viability at 28.5 h, 10 µM: 91.9%
--
COMPOUND: COc1cncc(C(NC(=O)Cn2ccccc2=O)[C@H]2C[C@@H](O)C2)c1 (stereo partly shown)
viability at 28.5 h, 10 µM: 92.5%
--
COMPOUND: COc1ccc(C(=O)Nc2c(Cl)ccc3nsnc23)cc1
viability at 28.5 h, 10 µM: 87.2%
--
COMPOUND: O=c1n(C(c2ccccc2)c2ccccc2)ccn1S(=O)(=O)c1ccc(Oc2ccccc2)cc1
viability at 28.5 h, 10 µM: 89.5%
--
COMPOUND: Cc1cc(O)ccc1Nc1cc(-c2cc3ccccc3s2)ncn1
viability at 28.5 h, 10 µM: 87%
--
COMPOUND: CN1CCC(N(C)C/C(Cl)=C/c2ccccc2)CC1
viability at 28.5 h, 10 µM: 92.1%
--
COMPOUND: COc1ccc(CSCc2n[nH]c(=O)[nH]2)cc1[N+](=O)[O-]
viability at 28.5 h, 10 µM: 101%
--
COMPOUND: CCC(C(=O)Nc1nccs1)N(C)Cc1c(C)nn(C(C)C)c1C (stereo not shown)
viability at 28.5 h, 10 µM: 103%
--
COMPOUND: Cc1nn2c(=O)[nH]ncc2c1-c1ccccc1C(=O)N(C(C)C)C(C)C
viability at 28.5 h, 10 µM: 109%

---

assay: in vitro; settings: human, hela cells, % viability
Criterion: viability at 28.5 h, 10 µM strictly under 90%. Met: Satisfied. Not met: Not satisfied.

COMPOUND: COc1ccc(-c2nc(O)cc(C(F)(F)F)n2)cc1
CLASS NAME: Satisfied
--
COMPOUND: Cc1ncccc1COC(=O)NCCc1ccccn1
CLASS NAME: Not satisfied
--
COMPOUND: CNc1c(C)cc([N+](C)(C)C)cc1C [CBK261007I]
CLASS NAME: Not satisfied
--
COMPOUND: O=[N+]([O-])c1ccc(O)c(/C=N/c2ccc(Oc3ccc(/N=C/c4cc([N+](=O)[O-])ccc4O)cc3)cc2)c1
CLASS NAME: Not satisfied

---

In this section, each of the compounds is paired with its reported viability at 28.5 h, 10 µM.
assay: in vitro; conditions: human, hela cells, % viability

COMPOUND: COc1ccccc1CNC(=O)CCn1ccc2ccncc21
viability at 28.5 h, 10 µM [%]: 91.9

COMPOUND: Cc1cc(COc2nccnc2N2CCN(Cc3ccc([N+](=O)[O-])cc3)CC2)no1
viability at 28.5 h, 10 µM [%]: 92

COMPOUND: COc1ccc(CNC(=O)c2sc3nc4c(c(C(F)(F)F)c3c2N)CCC4)cc1OC
viability at 28.5 h, 10 µM [%]: 85.7

COMPOUND: O=C(Nc1sc2c(c1C(=O)O)CCCC2)c1cc2ccccc2o1
viability at 28.5 h, 10 µM [%]: 91

COMPOUND: COc1ccc(CC(=O)N2CCC[C@@H](N)[C@@H]2c2ccccc2F)cc1
viability at 28.5 h, 10 µM [%]: 102

COMPOUND: CC(C)CCc1c(O)nc(SCCN2CCOCC2)n(-c2ccccc2)c1=O [CBK263363C]
viability at 28.5 h, 10 µM [%]: 85.5

Source listed as paper PMC12040169.
